Tested on: TTR
Experiment: TTR editing in primary human hepatocytes transfected with Spy Cas9 mRNA and sgRNAs (Table 13)
Assay type: cell-based
Conditions: primary human hepatocytes co-transfected with Spy Cas9 mRNA (SEQ ID NO:2) and sgRNAs, 12.5 nM
Strand notation (5' to 3'): a small letter for the sugar, then the base; units joined by * are phosphorothioate-linked, units joined directly phosphodiester-linked; [ ] holds rarer units or linkages, { } end groups; capitals alone tell only the bases. m = 2'-O-methyl; r = 2'-OH (RNA)
// reported Avg % Insert for each item listed

Molecule	Uom	Avg % Insert
G000484: TTR sgRNA modified sequence, Human, SEQ ID No. 91; guide sequence of CR003367 (nucleic acid) guide: mA*mG*mA*rCrArCrCrArArArUrCrUrUrArCrUrGrGrArGrUrUrUrUrArGrAmGmCmUmAmGmAmAmAmUmAmGmCrArArGrUrUrArArArArUrArArGrGrCrUrArGrUrCrCrGrUrUrArUrCrAmAmCmUmUmGmAmAmAmAmAmGmUmGmGmCmAmCmCmGmAmGmUmCmGmGmUmGmCmU*mU*mU*mU	%	13.98
G000571: TTR sgRNA modified sequence, Human, SEQ ID No. 112; guide sequence of CR005301 (nucleic acid) guide: mG*mU*mC*rArCrArGrArArArCrArCrUrCrArCrCrGrUrGrUrUrUrUrArGrAmGmCmUmAmGmAmAmAmUmAmGmCrArArGrUrUrArArArArUrArArGrGrCrUrArGrUrCrCrGrUrUrArUrCrAmAmCmUmUmGmAmAmAmAmAmGmUmGmGmCmAmCmCmGmAmGmUmCmGmGmUmGmCmU*mU*mU*mU	%	14.47
G000495: TTR sgRNA modified sequence, Human, SEQ ID No. 102; guide sequence of CR003343 (nucleic acid) guide: mC*mA*mG*rArGrGrArCrArCrUrUrGrGrArUrUrCrArCrGrUrUrUrUrArGrAmGmCmUmAmGmAmAmAmUmAmGmCrArArGrUrUrArArArArUrArArGrGrCrUrArGrUrCrCrGrUrUrArUrCrAmAmCmUmUmGmAmAmAmAmAmGmUmGmGmCmAmCmCmGmAmGmUmCmGmGmUmGmCmU*mU*mU*mU	%	43.40
G000480: TTR sgRNA modified sequence, Human, SEQ ID No. 87; guide sequence of CR003353 (nucleic acid) guide: mA*mA*mA*rGrGrCrUrGrCrUrGrArUrGrArCrArCrCrUrGrUrUrUrUrArGrAmGmCmUmAmGmAmAmAmUmAmGmCrArArGrUrUrArArArArUrArArGrGrCrUrArGrUrCrCrGrUrUrArUrCrAmAmCmUmUmGmAmAmAmAmAmGmUmGmGmCmAmCmCmGmAmGmUmCmGmGmUmGmCmU*mU*mU*mU	%	59.85
G000486: TTR sgRNA modified sequence, Human, SEQ ID No. 93; guide sequence of CR003339 (nucleic acid) guide: mA*mC*mA*rCrArArArUrArCrCrArGrUrCrCrArGrCrArGrUrUrUrUrArGrAmGmCmUmAmGmAmAmAmUmAmGmCrArArGrUrUrArArArArUrArArGrGrCrUrArGrUrCrCrGrUrUrArUrCrAmAmCmUmUmGmAmAmAmAmAmGmUmGmGmCmAmCmCmGmAmGmUmCmGmGmUmGmCmU*mU*mU*mU	%	2.82
G000497: TTR sgRNA modified sequence, Human, SEQ ID No. 104; guide sequence of CR003335 (nucleic acid) guide: mC*mU*mG*rCrUrCrCrUrCrCrUrCrUrGrCrCrUrUrGrCrGrUrUrUrUrArGrAmGmCmUmAmGmAmAmAmUmAmGmCrArArGrUrUrArArArArUrArArGrGrCrUrArGrUrCrCrGrUrUrArUrCrAmAmCmUmUmGmAmAmAmAmAmGmUmGmGmCmAmCmCmGmAmGmUmCmGmGmUmGmCmU*mU*mU*mU	%	34.48
G000496: TTR sgRNA modified sequence, Human, SEQ ID No. 103; guide sequence of CR005304 (nucleic acid) guide: mG*mG*mC*rCrGrUrGrCrArUrGrUrGrUrUrCrArGrArArGrUrUrUrUrArGrAmGmCmUmAmGmAmAmAmUmAmGmCrArArGrUrUrArArArArUrArArGrGrCrUrArGrUrCrCrGrUrUrArUrCrAmAmCmUmUmGmAmAmAmAmAmGmUmGmGmCmAmCmCmGmAmGmUmCmGmGmUmGmCmU*mU*mU*mU	%	11.08
G000481: TTR sgRNA modified sequence, Human, SEQ ID No. 88; guide sequence of CR003345 (nucleic acid) guide: mU*mC*mU*rArGrArArCrUrUrUrGrArCrCrArUrCrArGrGrUrUrUrUrArGrAmGmCmUmAmGmAmAmAmUmAmGmCrArArGrUrUrArArArArUrArArGrGrCrUrArGrUrCrCrGrUrUrArUrCrAmAmCmUmUmGmAmAmAmAmAmGmUmGmGmCmAmCmCmGmAmGmUmCmGmGmUmGmCmU*mU*mU*mU	%	14.62
G000499: TTR sgRNA modified sequence, Human, SEQ ID No. 106; guide sequence of CR005303 (nucleic acid) guide: mU*mG*mA*rArUrCrCrArArGrUrGrUrCrCrUrCrUrGrArGrUrUrUrUrArGrAmGmCmUmAmGmAmAmAmUmAmGmCrArArGrUrUrArArArArUrArArGrGrCrUrArGrUrCrCrGrUrUrArUrCrAmAmCmUmUmGmAmAmAmAmAmGmUmGmGmCmAmCmCmGmAmGmUmCmGmGmUmGmCmU*mU*mU*mU	%	38.58
G000572: TTR sgRNA modified sequence, Human, SEQ ID No. 113; guide sequence of CR003385 (nucleic acid) guide: mC*mC*mC*rCrUrArCrUrCrCrUrArUrUrCrCrArCrCrArGrUrUrUrUrArGrAmGmCmUmAmGmAmAmAmUmAmGmCrArArGrUrUrArArArArUrArArGrGrCrUrArGrUrCrCrGrUrUrArUrCrAmAmCmUmUmGmAmAmAmAmAmGmUmGmGmCmAmCmCmGmAmGmUmCmGmGmUmGmCmU*mU*mU*mU	%	41.62
G000490: TTR sgRNA modified sequence, Human, SEQ ID No. 97; guide sequence of CR003366 (nucleic acid) guide: mA*mA*mA*rUrArGrArCrArCrCrArArArUrCrUrUrArCrGrUrUrUrUrArGrAmGmCmUmAmGmAmAmAmUmAmGmCrArArGrUrUrArArArArUrArArGrGrCrUrArGrUrCrCrGrUrUrArUrCrAmAmCmUmUmGmAmAmAmAmAmGmUmGmGmCmAmCmCmGmAmGmUmCmGmGmUmGmCmU*mU*mU*mU	%	19.38
